Where do the numbers come from? From patent US7405205B2.

Tested on: MIA PaCa-2 pancreatic cell carcinoma
Assay: Relative colony forming efficiency after antisense treatment (Table 13)
Format: cell-based, human
Settings: 0.2 μM antisense oligodeoxyribonucleotide phosphorothioate; MIA PaCa-2 cells; averages of 2-8 determinations
Strand notation (5' to 3'): a small letter for the sugar, then the base; units joined by * are phosphorothioate-linked, units joined directly phosphodiester-linked; [ ] holds rarer units or linkages, { } end groups; capitals alone tell only the bases. d = 2'-deoxy (DNA)
reported-property: Reduced relative colony forming efficiency, expressed as % inhibition, MIA PaCa-2 (%)
A number alone suffices; assume %.

{"residue-codes": "TATCGCCGCCGTGAGTACAA (DNA, all phosphorothioate, methylation of C not given here) [AS-II-1768-20]", "measured-number": 60.36}

What does the data say about its Reduced relative colony forming efficiency, expressed as % inhibition, MIA PaCa-2? Entry: CAGAATATCGACGCAAAAGA (antisense; DNA, all phosphorothioate, methylation of C not given here) [AS-II-909-20]
46.13

What would you report for ATGGTACTCGATGGGGAAGA (dA*dT*dG*dG*dT*dA*dC*dT*dC*dG*dA*dT*dG*dG*dG*dG*dA*dA*dG*dA) [AS-II-439-20] ?
92.69
